Origin of the recorded values: PubChem BioAssay (NCATS)

- Test Method Notes: Quantitative High-Throughput drug screen in 47 multiple myeloma cell lines against the NCATS MIPE library collection: OPM1_PLB cell viability assay (AID 1918989); note: nearly all actives have a fitted effect of over 40% in size
- Condition Notes: CellTiter-Glo, 48 h; series mostly up to 45.8 µM
Results filed as inconclusive are left out. Active and inactive are the calls of the source. Calls come from the whole dose curve; as a rule, active = well fitted cell-killing curve with a large enough effect; inconclusive = small, poorly fitted or top-dose-only effect, or effect the other way; inactive = no such curve, though single readings can be large or run the other way.
Thanks in advance; please answer with one of these: 1 (yes) = active, 0 (no) = inactive

Some entries whose results are on file:
# Smiles Record, Answer Label
rows = [
    ("N[C@@H](Cc1cc(I)c(Oc2cc(I)c(O)c(I)c2)c(I)c1)C(=O)O", "0 (no)"),
    ("O=c1c(O)c(-c2ccc(O)cc2O)oc2cc(O)cc(O)c12", "0 (no)"),
    ("CCCOc1ccc2nc(NC(=O)OC)[nH]c2c1", "1 (yes)"),
]

Q. What call does the record list for C[C@]12CCC(=O)C=C1CC[C@@H]1[C@H]2[C@@H](O)C[C@@]2(C)[C@H]1CC[C@]2(O)C(=O)CO ?
A. 0 (no)

Q. // outcome(item) with item = Cc1cccc(C#Cc2ccccc2)n1
A. 1 (yes)
